# test_protocol: Selectivity index, ratio of IC50 for cytotoxicity against rat L6 cells to IC50 for antiplasmodial activity against chloroquine and pyrimethamine resistant Plasmodium falciparum K1 infected in human red blood cells
# Format: toxicity, cell-based
# condition: read-out: Selectivity Index
reported_endpoint: selectivity ratio

Consider "CO/N=C(/N)c1ccc(Cc2ccc(Cc3ccc(/C(N)=N\OC)cc3)cc2)cc1" . Its measured selectivity ratio is > 3.9

Lab note: measured selectivity ratio of "N=C(N)c1ccc(-c2ccc(Cc3cccc(C(=N)N)c3)cc2)cc1" was 64.5

Briefly, selectivity ratio measured for "CO/N=C(\N)c1cccc(Cc2ccc(-c3ccc(/C(N)=N\OC)cc3)cc2)c1" : 3.7

Please find the next molecule below.
So, "N=C(N)c1ccc(Oc2ccc(-c3ccc(C(=N)N)cc3)cn2)cc1" ? Its selectivity ratio was 525

====

ΔTm, Poly(dA-dT)oligonucleotide, per-entry values.
Report as a plain number; the unit °C is understood.

Note to self: ΔTm of "N=C(N)c1ccc(-c2ccc(Cc3cccc(C(=N)N)c3)cc2)cc1" with Poly(dA-dT)oligonucleotide was 8.5

Reading of ΔTm for "N=C(N)c1ccc(Oc2ccc(-c3ccc(C(=N)N)cc3)cn2)cc1" with Poly(dA-dT)oligonucleotide: 17.8

For the compound "N=C(N)c1ccc(Cc2ccc(Cc3ccc(C(=N)N)cc3)o2)cc1" , the measured ΔTm on Poly(dA-dT)oligonucleotide was 2.25

Continue with the compound presented below.
Fill in: Poly(dA-dT)oligonucleotide ΔTm for "N=C(N)c1ccc(Cc2ccc(-c3ccc(C(=N)N)cc3)nc2)cc1" = 1

====

# Test system: Trypanosoma brucei rhodesiense
# test_protocol: Antitrypanosomal activity against Trypanosoma brucei rhodesiense STIB900 measured after 72 hrs by alamar blue dye based fluorimetry analysis
# Format: functional, organism-based
# condition: STIB900, 72 h
Each entry below lists one item and its recorded pIC50 value.
Lab note — pIC50 values are minus log10 of concentrations in M.

Worked cases, answers included:
Observed pIC50 on Trypanosoma brucei rhodesiense, entry "CN(C)CCCC(=O)O/N=C(\N)c1ccc(Cc2ccc(-c3ccc(/C(N)=N\OC(=O)CCCN(C)C)cc3)cc2)cc1" , equals 6.98

Measured on Trypanosoma brucei rhodesiense, "CO/N=C(\N)c1cccc(Cc2ccc(Cc3ccc(/C(N)=N\OC)cc3)cc2)c1" has a documented pIC50 of 4.73

Result for "CO/N=C(\N)c1cccc(Cc2ccc(-c3ccc(/C(N)=N\OC)cc3)cc2)c1" , tested on Trypanosoma brucei rhodesiense, pIC50: 4.78

Recorded pIC50 for "N=C(N)c1ccc(Oc2cccc(Oc3ccc(C(=N)N)cc3)n2)cc1" on Trypanosoma brucei rhodesiense was 6.42

Next:
Tested on Trypanosoma brucei rhodesiense: "CO/N=C(\N)c1ccc(-c2ccc(Oc3ccc(/C(N)=N\OC)cc3)nc2)cc1" . Observed pIC50: 4.84

====

# Tested on: Trypanosoma brucei rhodesiense
# test_protocol: Antitrypanosomal activity against bloodstream form of Trypanosoma brucei rhodesiense STIB900 infected in mouse assessed as reduction in parasitemia by measuring time taken to cure at 5 mg/kg, ip measured up to 60 days (reference value: 11 days)
# Assay type: functional
# condition: time day <=60
Time by entry:
Report the figure in days without appending any unit label.

Field: example entries. Status: answers known.
According to the records, this compound "N=C(N)c1ccc(-c2ccc(Cc3cccc(C(=N)N)c3)cc2)cc1" displays Time of 22.75

# Time (compound: "N=C(N)c1ccc(OCCCCCOc2ccc(C(=N)N)cc2)cc1" ) is 20

So, "N=C(N)c1ccc(Cc2ccc(Cc3ccc(C(=N)N)cc3)cc2)cc1" ? Its Time was 16.25

Recorded result, "N=C(N)c1ccc(Cc2ccc(Cc3cccc(C(=N)N)c3)cc2)cc1" , Time: 15.5

Query "N=C(N)c1ccc(Cc2ccc(-c3ccc(C(=N)N)cc3)cc2)cc1" yields Time of 22

---
Time reported for this compound "N=C(N)c1ccc(-c2ccc(-c3ccc(C(=N)N)cc3)o2)cc1" : 24

Documented Time of "N=C(N)c1ccc(Cc2ccc(Cc3ccc(C(=N)N)cc3)o2)cc1" : 18.75
